System Name: Thyrotropin receptor (Homo sapiens) (UniProt P16473)
Sequence (P16473 whole entry, looked up): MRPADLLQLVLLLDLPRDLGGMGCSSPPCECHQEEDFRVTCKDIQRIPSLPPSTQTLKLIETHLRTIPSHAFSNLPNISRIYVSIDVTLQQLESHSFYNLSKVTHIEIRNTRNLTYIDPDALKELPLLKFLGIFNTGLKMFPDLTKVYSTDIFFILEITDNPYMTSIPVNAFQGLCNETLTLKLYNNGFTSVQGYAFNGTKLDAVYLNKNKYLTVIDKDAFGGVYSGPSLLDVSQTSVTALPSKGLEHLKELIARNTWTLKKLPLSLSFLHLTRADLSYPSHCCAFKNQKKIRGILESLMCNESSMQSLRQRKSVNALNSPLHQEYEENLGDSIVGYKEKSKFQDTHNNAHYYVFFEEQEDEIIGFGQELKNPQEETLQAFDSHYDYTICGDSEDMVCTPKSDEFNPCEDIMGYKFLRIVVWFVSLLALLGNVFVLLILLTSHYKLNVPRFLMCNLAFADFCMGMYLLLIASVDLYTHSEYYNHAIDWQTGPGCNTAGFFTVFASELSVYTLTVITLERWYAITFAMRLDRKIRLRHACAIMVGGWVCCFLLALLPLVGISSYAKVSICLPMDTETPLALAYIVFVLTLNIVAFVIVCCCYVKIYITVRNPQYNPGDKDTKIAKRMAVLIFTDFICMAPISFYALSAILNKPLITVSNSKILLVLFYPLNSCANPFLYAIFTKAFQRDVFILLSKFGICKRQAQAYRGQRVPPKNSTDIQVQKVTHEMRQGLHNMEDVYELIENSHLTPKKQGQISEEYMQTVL
Test Details: Confirmation Concentration-Response Assay for Agonists of the Thyroid Stimulating Hormone Receptor; also: potency is read from the fitted curve at half-maximal effect; as to activation: % of control where 0% means no effect
Condition Set: HEK293 TSHR-CNG cells, membrane potential dye, cAMP; series mostly up to 25.6 µM
Experimental: NIH Chemical Genomics Center [NCGC] NIH Molecular Libraries Screening Centers Network [MLSCN] […] NCGC Assay Protocol Summary: High Throughput Screening. […] 23 nl/well compound or control was then added to the assay plates, which were incubated for additional 30 min before reading a Envision fluorescence plate reader (Perkin Elmer) in bottom-read mode for fluorescence intensity (emission at 590 nm). […]
Records with an inconclusive call do not appear. Calls of active or inactive are those of the source. Calls follow the shape of the dose curve; as a rule, active = well fitted activation curve with a large enough effect in the main read-out, with a control signal flat; inconclusive = small, poorly fitted or top-dose-only effect, or effect the other way, or a change in a side signal; inactive = no such curve, though single readings can be large or run the other way.
Reported Metric: Potency

Solved entries:
# Molecule, Potency
measured = [
    ("CC1(C)c2ccccc2N2CC(=O)NC21/C=C/c1ccco1 (stereo not given)", "12.6 µM (active)"),
    ("Cc1ccccc1-c1nc(CN2CCC(C(=O)N3CCN(c4ccccn4)CC3)CC2)c(C)o1", "inactive"),
    ("O=C1C2C3CCCC3=C3CCCC3C2C(=O)N1c1ccc(Cl)cc1 (stereo not given)", "1.58 µM (active)"),
    ("CCOc1ccc(N(CC(=O)Nc2ccc(C)cc2)S(=O)(=O)c2c(C)noc2C)cc1", "inactive"),
]

Turning to the following molecule.
// query Potency value for entry C=CCn1c(COc2ccccc2F)nnc1SCC(=O)N1CC(=O)Nc2ccccc21
inactive

====

System Name: Thyrotropin receptor (Homo sapiens)
Test Details: Confirmation Concentration-Response Assay for Agonists of the Thyroid Stimulating Hormone Receptor; as to activation: % of control where 0% means no effect
Condition Set: HEK293 TSHR-CNG cells, membrane potential dye, cAMP; series mostly up to 25.6 µM
Inconclusive results are not listed. Calls of active or inactive are those of the source. The call rests on the fitted dose curve; in most records, active means well fitted activation curve with a large enough effect in the main read-out, with a control signal flat; inconclusive means small, poorly fitted or top-dose-only effect, or effect the other way, or a change in a side signal; inactive means no such curve, though single readings can be large or run the other way.
# valid calls are Y = active, N = inactive; nothing else

# Compound, Group
data = [
    ("Cc1ccc(C)c(Cn2c(C(C)O)nc3ccccc32)c1 (configuration not stated)", "Y"),
    ("NC(=O)c1nsc(C(=O)N(CC(=O)NCc2ccc3c(c2)OCO3)C2CCCCC2)c1N", "Y"),
    ("CCOC(=O)C1C(=O)Nc2nc(C)nn2C1c1ccccc1 (configuration not stated)", "N"),
]

Give the logged outcome of this assay for the following compound: Cc1oc(-c2cccc(Cl)c2)nc1CN1CCCC(C(=O)NC(C)c2ccc3c(c2)OCCO3)C1 (configuration not stated)
N

Param item: Oc1ccccc1Cn1c(-c2ccccc2O)nc2ccccc21
Y

Another compound to check: Cc1ccc(S(=O)(=O)N2CCC(C(=O)NCCCN3CCCCCC3)CC2)cc1
N

Okay, and COc1ccc(C2Nc3ccccc3C(=O)N2Cc2ccco2)cc1COc1ccc(NC(C)=O)cc1 (configuration not stated) ?
Y

What would you report for O=C1N(c2ccccc2)C2CS(=O)(=O)CC2N1c1ccc(Cl)c(Cl)c1 (configuration not stated) ?
N

====

Test Details: Confirmation Concentration-Response Assay for Agonists of the Thyroid Stimulating Hormone Receptor
Condition Set: HEK293 TSHR-CNG cells, membrane potential dye, cAMP; measured here: parental HEK293 counter-screen max
Protocol: NIH Chemical Genomics Center [NCGC] NIH Molecular Libraries Screening Centers Network [MLSCN] […] NCGC Assay Protocol Summary: High Throughput Screening. […] 23 nl/well compound or control was then added to the assay plates, which were incubated for additional 30 min before reading a Envision fluorescence plate reader (Perkin Elmer) in bottom-read mode for fluorescence intensity (emission at 590 nm). […]
Records with an inconclusive call do not appear.
Reported Metric: max response (%)
Write down the numeric answer in % and omit the unit.

# Compound, Numeric Result
records = [
    ("COC(=O)C1=C(C)OC(N)=C(C#N)C1c1c(C)nn(-c2ccccc2)c1Cl (stereo not given)", 6.03),
    ("CN1C(=O)C2C=CC1C1C(=O)N(c3ccccc3)C(=O)C21 (stereo not given)", 2.29),
    ("COc1ccc(-c2ccc(-c3noc(C)n3)c(OC)n2)cc1", 8.55),
    ("CSc1nc(NC(C)(C)C)nc(Oc2ccc(=O)[nH]n2)n1", -2.82),
    ("CCOC(=O)N1CCC(NC(=O)c2ccc(CNS(=O)(=O)c3ccc(F)cc3)cc2)CC1", 8.37),
]

Which value of max response has been reported for CCOc1ccc(N(C(C)C(=O)Nc2ccc(OC)cc2)S(C)(=O)=O)cc1 (stereo not given) in the records?
-4.4

For CCCC(=O)C1=C(SCC)CC(C)(C)C(C(=O)OC)C1=O (stereo not given) then?
9.56

Would you mind doing O=C(C1COc2ccccc2O1)N1CCCC1 (stereo not given) as well?
-1.94

Another: O=C(COC(=O)C1c2ccccc2Oc2ccccc21)Nc1ccc2c(c1)OCO2
8.54

Also, COC(=O)C1=C(C)OC(N)=C(C#N)C1C1CCCCC1 (stereo not given) please.
16.5

Field entry: COc1cccc(C(c2nnnn2Cc2ccccc2)N2CCN(C(=O)c3ccco3)CC2)c1OC (stereo not given)
-3.51

Also O=C1C2C3CCCC3=C3CCCC3C2C(=O)N1c1ccc(Cl)cc1 (stereo not given) ?
-8.66

Try this compound too: Cc1onc(-c2ccccc2)c1C(=O)N1CCCSC1=Nc1ccccc1
18.9

Try the compound COc1ccc(C2Nc3ccccc3C(=O)N2Cc2ccco2)cc1COc1ccc(NC(C)=O)cc1 (stereo not given)
21.9

And COc1ccc(C(=O)N(Cc2ccco2)Cc2cccs2)c(O)c1 ?
-7.34

Entry Cc1ccc(S(=O)(=O)NC(=O)Nn2c(C)nnc2C)cc1 please
1.93

Now this one: COc1cc(NC(=O)c2cc(-n3cnnc3)ccc2Cl)cc(OC)c1
-1.27

Same thing, different compound: CCN(c1ccccc1)S(=O)(=O)c1ccc(Oc2ccc(-n3ccnc3)cc2)nc1
-1.61

Ok, now COc1ccc(-c2cc(C(F)(F)F)nc(SCCC(=O)N3CCOCC3)n2)cc1
13

Also Oc1ccccc1Cn1c(-c2ccccc2O)nc2ccccc21 ?
-14.6

Repeat for the following compound: CC1(C)c2ccccc2N2CC(=O)NC21/C=C/c1ccco1 (stereo not given)
9.74
